# System: Wolbachia pipientis
# experiment: Anti-Wolbachia Cell-Based Screen
# Assay type: functional
# Design: scale not given: in the data most compounds retested in dose-response had high values
# protocolConditions: 5 µM
Screen size: about 48,000 compounds; about 13,000 (27%) showed an effect of 50% or more. This is one part of the list.
assayEndpoint: Percent Effect (%)

1) COc1cccc(N2CCN(C(=O)C(C)Oc3ccccc3)CC2=O)c1 (configuration not stated) ... 9.152
2) N#Cc1c(Cl)nsc1NCCCN1C(=O)COc2ccccc21 ... -8.12
3) COc1cccc(N2CCN(Cc3nccn3C(C)C)CC2=O)c1 ... 98.08
4) COc1cccc(N2CCN(Cc3ccc4[nH]ccc4c3)CC2=O)c1 ... 81.94
5) Cc1cccc(CC2COCCN(Cc3nccn3C)C2)n1 (configuration not stated) ... 119.1
6) Cn1ccnc1C1CCN(CCC2CCOC2)CC1 (configuration not stated) ... -2.458
7) CCC(Nc1ccc(Oc2cccc(C#N)c2)cc1)C(N)=O (configuration not stated) ... 18.43
8) Cc1cnc(CC2COCCN(Cc3nccn3C)C2)cn1 (configuration not stated) ... 117.2
9) Cn1ccnc1CN1CCOCC(Cc2ccccn2)C1 (configuration not stated) ... -4.289
10) COc1cccc(N2Cc3nc(=O)[nH]n3C2=O)c1 ... -15.51
11) CC(=O)NCc1nnc2n1CCN(c1ncnc3c1CCC3)CC2 ... -4.362
12) CN(C)c1ccc(CC2COCCN(Cc3nccn3C)C2)nn1 (configuration not stated) ... 107.3

----------
The compounds listed here are annotated with their Percent Effect.
# Test system: Wolbachia pipientis
# experiment: Anti-Wolbachia Cell-Based Screen
# Assay type: functional
# Set-up: scale not given: in the data most compounds retested in dose-response had high values
# protocolConditions: 5 µM
About 13,000 (27%) of roughly 48,000 compounds showed an effect of 50% or more. The list shows a part of the results.
assayEndpoint: Percent Effect (%)

1. O=C(CCSc1ccccc1)NS(=O)(=O)c1ccc2c(c1)OCCO2 ... 13.89
2. COCCN(Cc1ccccc1)c1cc(C)ncn1 ... -9.961
3. CCc1cnc(CN(C)C2CCN(Cc3nnc(C4CC4)n3C)C2)o1 (stereo not given) ... 100.6
4. Cc1oc(NC(=O)C(C)N2CCN(C(C)(C)CO)CC2)c(C#N)c1C (stereo not given) ... -7.519
5. Cc1ccccc1C(C#N)NC(=O)CCCOc1cccnc1 (stereo not given) ... 81.76
6. Cn1c(C(=O)NC2CC2)nc2c1CCN(c1ncccn1)C2 ... -5.985
7. Cc1cnc(CN2CCC(N(C)Cc3nnc(C4CC4)n3C)C2)cn1 (stereo not given) ... -1.467
8. CN(Cc1nnc(C2CC2)n1C)C1CCN(Cc2ccccc2)C1 (stereo not given) ... -8.297
9. N#CC(NC(=O)CCC(=O)NC1CCCC1)c1ccc(F)cc1F (stereo not given) ... -15.9
10. COCC(=O)NCc1cc(=O)n2c(n1)CN(Cc1ccco1)CCC2 ... 106.6
11. CCn1nc(C)c2nc(C(C)C)nc(N3CCCCC3)c21 ... -10.35
12. O=c1cc(CN2CCCC2)nc2n1CCCN(Cc1ccsc1)C2 ... 8.942
13. CC(C#N)CN(C)Cc1ccc(Cl)c2cccnc12 (stereo not given) ... -6.534
14. Cc1nn(C)c2c(NCCCn3cccn3)ncnc12 ... 1.711
15. COCCOCC(=O)NC(C#N)c1ccccc1C (stereo not given) ... -6.044
16. CCC(C#N)NC(=O)CCCOc1cccc(C(C)=O)c1 (stereo not given) ... 2.653
17. CNC(=O)N1CCC2(CC1)CN(C(C)C)Cc1cc(F)ccc12.Cl ... -6.692
18. O=c1cc(Cn2cncn2)nc2n1CCCN(Cc1ccco1)C2 ... -4.032
19. CCn1nc(C)c2ncnc(N(C)C)c21 ... 100.5
20. CN(Cc1nnc(C2CC2)n1C)C1CCN(CCc2ccccc2)C1 (stereo not given) ... -2.973
21. CCN(CC)c1ncnc2c(C)nn(CC)c12 ... 92.35
22. Cc1cccc(CN2CCC(N(C)Cc3nnc(C4CC4)n3C)C2)c1 (stereo not given) ... 125.1
23. CC(NC(=O)CCCOc1ccccc1Cl)c1ccncc1 (stereo not given) ... -5.122
24. CN(Cc1nnc(C2CC2)n1C)C1CCN(Cc2ccncc2)C1 (stereo not given) ... 97.4
25. CCCc1nc(N2CCN(CC)CC2)c2c(n1)c(C)nn2CC ... -11.71

----------
# System: Wolbachia pipientis
# experiment: Anti-Wolbachia Cell-Based Screen
# Format: functional
# Design: scale not given: in the data most compounds retested in dose-response had high values
# protocolConditions: 5 µM
Hit rate of the full screen: of about 48,000 compounds, about 13,000 (27%) showed an effect of 50% or more. This is one part of the list.
assayEndpoint: Percent Effect (%)

1. COc1ccc(CC(=O)NCCNS(=O)(=O)c2ccc(C)cc2)cc1 ... 90.25
2. Cc1n[nH]c(SCC(=O)N[C@@H](C)C(N)=O)n1 ... -9.569
3. Cn1cc(CN2CCOC(CCNC(=O)c3ccsc3)C2)cn1 (centres undefined) ... -1.141
4. CC(=O)N1CCCC(C(=O)N2CCN(c3cnn(C)c(=O)c3)CC2)C1 (centres undefined) ... -1.408
5. CCc1ncncc1C(=O)NCCNS(=O)(=O)c1ccc(C)cc1 ... 8.343
6. O=C(CCNS(=O)(=O)c1ccccc1)NCc1ccoc1 ... -4.508
7. CNS(=O)(=O)c1cccc(C(C)NCc2cccc(OC)c2)c1 (centres undefined) ... 4.426
8. CC(C)N(CC(N)=O)CC(=O)NCCc1c(F)cccc1F ... 4.922
9. COc1cccc(CCNC(=O)CCS(=O)(=O)C2CCCC2)c1 ... 1.804
10. Cn1cnc(S(=O)(=O)NCC2(O)CCOc3ccccc32)c1 (centres undefined) ... -16.89
11. COc1cccc(CNC(=O)N2CCN3CCNC(=O)C3C2)c1 (centres undefined) ... -4.227
12. O=C(NCc1ccc(F)cc1)NCC(O)(c1cccs1)C1CC1 (centres undefined) ... 0.4051
13. COc1ccc(-n2cccn2)c(CN2CCOCC(CN(C)C)C2)c1 (centres undefined) ... -24.66
14. CS(=O)(=O)CCSCc1cccc2cccnc12 ... -12.23
15. Cn1ncc(N2CCC(CNC(=O)[C@@H](N)C3CCCCC3)CC2)cc1=O ... -13.96
16. Cc1cnn(C(C)C(=O)NCC2CCN(c3cnn(C)c(=O)c3)CC2)c1 (centres undefined) ... -4.842
17. CCn1cc(CN2CCC(NS(C)(=O)=O)CC2)cc1C#N ... -7.298
18. CNS(=O)(=O)c1cccc(CNC(=O)CCc2ccsc2)c1 ... 10.65
19. CC(C)C(=O)NCC(=O)NCC1CCN(c2cnn(C)c(=O)c2)CC1 ... -2.577
20. Cc1cccc2sc(NC(=O)CN3CCCC(O)(CO)C3)nc12 (centres undefined) ... -1.543
21. CCC(=O)N1CCCC(C(=O)N2CCN(c3cnn(C)c(=O)c3)CC2)C1 (centres undefined) ... 6.032
22. CN(C)S(=O)(=O)c1ccc(-c2nc(C#N)c(NC3CCCCC3)o2)o1 ... 126.8
23. Cc1ccc(C(=O)NCCC2CN(c3cnn(C)c(=O)c3)CCO2)s1 (centres undefined) ... 76.89
24. COc1cccc(CNC(=O)CCNS(=O)(=O)c2ccc(C)cc2)c1 ... 91.68

----------
# System: Wolbachia pipientis
# experiment: Anti-Wolbachia Cell-Based Screen
# Type: functional
# Set-up: scale not given: in the data most compounds retested in dose-response had high values
# protocolConditions: 5 µM
The whole screen tested about 48,000 compounds, of which about 13,000 (27%) showed an effect of 50% or more. The list shows a part of the results.
assayEndpoint: Percent Effect (%)

1. O=c1[nH]c2c(c(=O)n1C1CCCCC1)CCC2Nc1ccccc1Cl (centres undefined) ... 4.437
2. FC(F)(F)c1ccc(-c2noc3c2CN(CC2CCCO2)CC3)cc1 (centres undefined) ... -4.107
3. O=C(O)C(F)(F)F.O=C(O)C(F)(F)F.O=C(c1cnccn1)N1CCCC2(CCN(Cc3cccnc3)C2)C1 (centres undefined) ... -9.392
4. O=C(O)C(F)(F)F.O=C(c1cnccn1)N1CCCC2(CCN(Cc3ccsc3)C2)C1 (centres undefined) ... 100.1
5. O=C(O)C(F)(F)F.O=C(O)C(F)(F)F.c1csc(CN2CC3(CCN(Cc4ccsc4)C3)C2)n1 ... -7.051
6. O=C(O)C(F)(F)F.O=C(c1cnccn1)N1CCCC2(CCN(Cc3ccsc3)CC2)C1 ... 106.6
7. O=C(O)C(F)(F)F.O=C(c1cnccn1)N1CC2(CCN(Cc3ccsc3)C2)C1 ... 96.61
8. O=C(O)C(F)(F)F.O=C(c1cnccn1)N1CCCC2(CCN(Cc3ccc(F)cc3)C2)C1 (centres undefined) ... 8.086
9. CC(c1ccco1)N(C(=O)Cn1nc2n(c1=O)CCCCC2)C1CC1 (centres undefined) ... 105.1
